# target-under-test: FKBP12 (Homo sapiens, UniProt P62942)
# Sequence (P62942 whole entry, species assumed): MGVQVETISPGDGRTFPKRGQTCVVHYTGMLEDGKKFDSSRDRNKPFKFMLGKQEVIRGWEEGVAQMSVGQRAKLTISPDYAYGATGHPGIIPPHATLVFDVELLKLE
Threshold-based label: Kd under 20 nM gives true, Kd not under 20 nM gives false.

Qu. Below 20 nM on Kd? Entry COC1C(O)CCC(CC(C)C2CCC/C=C/C/C(C)=C/CC3OC(O)(C(=O)C(=O)N4CCCCC4C(=O)O2)C(C)CC3C)C1O (stereo not drawn)
Ans. true

Qu. Below 20 nM on Kd? Entry C/C1=C\CC2OC(O)(C(=O)C(=O)N3CCCCC3C(=O)OC(C(C)CC3CCC(O)C(O)C3)CCC/C=C/C1)C(C)CC2C (stereo not drawn)
Ans. true

Qu. Below 20 nM on Kd? Entry COC1CC(/C=C(C)/C=C(\C)C2CC(O)C/C=C(C)/C=C/C(=O)C/C=C/CC(C)C3OC(O)(CC(=O)N4CCCCC4C(=O)O2)C(C)CC3C)C=CC1O (stereo not drawn)
Ans. false

Qu. Below 20 nM on Kd? Entry C/C1=C\C2=CC(O)C(C=C2)OC(=O)C2CCCCN2C(=O)C(=O)C2(O)OC(CCC2C)C(C)C(O)/C=C/C(C)CCC(O)/C(C)=C/C(C)C1 (stereo not drawn)
Ans. false

Qu. Below 20 nM on Kd? Entry COC1C=C(/C=C/C2OC(=O)C3CCCCN3C(=O)C3(O)OC(CCC(C)C3=O)C(C)C3CC4OC(CC(O)C2C)(O3)C(C)CC4C)CCC1O (stereo not drawn)
Ans. false

Qu. Below 20 nM on Kd? Entry COC1C=C(/C=C/C2OC(=O)C3CCCCN3C(=O)C(=O)C3(O)OC(CCC3C)C(C)C3CC4OC(CC(O)C2C)(O3)C(C)CC4C)CCC1O (stereo not drawn)
Ans. false

Qu. Below 20 nM on Kd? Entry CC1=C\CC(O)CC(/C(C)=C/C(C)=C/C2C=CC(O)C(O)C2)OC(=O)C2CCCCN2C(=O)CC2(O)OC(C(C)C/C=C/CC(O)\C=C\1)C(C)CC2C (stereo not drawn)
Ans. false

Qu. Below 20 nM on Kd? Entry COC1CC(/C=C(C)/C=C(\C)C2CC(O)C/C=C(C)/C=C/C(O)C/C=C/CC(C)C3OC(O)(CC(=O)N4CCCCC4C(=O)O2)C(C)CC3C)C=CC1O (stereo not drawn)
Ans. false

Qu. Below 20 nM on Kd? Entry CCC1/C=C(\C)C(O)CCC(C)/C=C/C(O)C(C)C2CCC(C)C(O)(O2)C(=O)C(=O)N2CCCCC2C(=O)OC2C=CC(=CC2O)/C=C(\C)C1 (stereo not drawn)
Ans. true
